# IC50 measurements, system: Myosin light chain kinase 2, skeletal/cardiac muscle (Homo sapiens, UniProt Q9H1R3)
# Sequence (Q9H1R3 whole entry): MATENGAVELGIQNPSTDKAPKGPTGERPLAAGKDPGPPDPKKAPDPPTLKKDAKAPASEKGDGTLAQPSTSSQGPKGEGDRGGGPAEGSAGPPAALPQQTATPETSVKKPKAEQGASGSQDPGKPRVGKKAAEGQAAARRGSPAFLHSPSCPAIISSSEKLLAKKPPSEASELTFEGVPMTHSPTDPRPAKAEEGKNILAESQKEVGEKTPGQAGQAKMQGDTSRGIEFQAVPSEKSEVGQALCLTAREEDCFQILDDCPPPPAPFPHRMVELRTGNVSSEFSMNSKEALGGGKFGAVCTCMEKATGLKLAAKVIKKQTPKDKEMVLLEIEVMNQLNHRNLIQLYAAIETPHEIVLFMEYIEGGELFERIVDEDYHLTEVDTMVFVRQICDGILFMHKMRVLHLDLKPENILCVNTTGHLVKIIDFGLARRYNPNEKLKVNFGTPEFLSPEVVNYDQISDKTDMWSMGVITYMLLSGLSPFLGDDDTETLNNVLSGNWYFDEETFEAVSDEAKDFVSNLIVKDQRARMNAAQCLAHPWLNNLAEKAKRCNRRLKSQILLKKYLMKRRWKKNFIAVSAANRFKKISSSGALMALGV
Write the numeric value and append its unit.

compound	result
CN1C(=O)[C@@H](N2CCc3cn(Cc4ccccc4)nc3C2=O)COc2ccccc21	1000 nM

Below: the item to evaluate.
Q. I'm curious: which IC50 was measured for CN1C(=O)[C@@H](N2CCc3cn(CC4CCS(=O)(=O)CC4)nc3C2=O)COc2ccccc21 [TP-030n] tested on Myosin light chain kinase 2, skeletal/cardiac muscle (Homo sapiens, UniProt Q9H1R3)?
A. 1000 nM

* * *

# IC50 measurements, system: Ribosomal protein S6 kinase alpha-1 (Homo sapiens)
# Sequence (Q15418 whole entry): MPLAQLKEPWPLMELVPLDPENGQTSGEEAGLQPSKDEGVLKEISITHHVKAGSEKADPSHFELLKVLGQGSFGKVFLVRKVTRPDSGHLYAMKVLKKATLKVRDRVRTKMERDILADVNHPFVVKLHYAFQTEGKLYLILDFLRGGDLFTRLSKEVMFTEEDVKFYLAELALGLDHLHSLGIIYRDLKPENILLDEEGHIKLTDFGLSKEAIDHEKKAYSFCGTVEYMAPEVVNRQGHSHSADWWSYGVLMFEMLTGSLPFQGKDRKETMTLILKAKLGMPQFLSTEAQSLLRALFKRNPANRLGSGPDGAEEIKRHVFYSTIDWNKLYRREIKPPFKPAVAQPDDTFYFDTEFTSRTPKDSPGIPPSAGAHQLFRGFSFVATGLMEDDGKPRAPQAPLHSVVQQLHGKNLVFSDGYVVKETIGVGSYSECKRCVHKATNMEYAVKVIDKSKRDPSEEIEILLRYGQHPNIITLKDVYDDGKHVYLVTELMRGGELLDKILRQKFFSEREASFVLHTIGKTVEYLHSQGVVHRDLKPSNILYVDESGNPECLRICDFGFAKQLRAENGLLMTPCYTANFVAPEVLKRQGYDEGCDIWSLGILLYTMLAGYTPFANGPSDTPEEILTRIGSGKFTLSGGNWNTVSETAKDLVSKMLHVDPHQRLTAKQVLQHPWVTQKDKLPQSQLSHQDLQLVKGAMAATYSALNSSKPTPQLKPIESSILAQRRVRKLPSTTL
Dear colleague, please return just the value in µM, with no unit written.

molecule	IC50 [µM]
CN1C(=O)[C@@H](N2CCc3cn(Cc4ccccc4)nc3C2=O)COc2ccccc21 [TP-030-1]	1

Below: the item to evaluate.
Q. I'm curious: which IC50 was measured for CN1C(=O)[C@@H](N2CCc3cn(CC4CCS(=O)(=O)CC4)nc3C2=O)COc2ccccc21 [TP-030n] tested on Ribosomal protein S6 kinase alpha-1 (Homo sapiens)?
A. 1

* * *

The following compounds are shown together with reported IC50 values.
- targetSystem: Aurora kinase A (Homo sapiens, UniProt O14965)
- Sequence (O14965 whole entry): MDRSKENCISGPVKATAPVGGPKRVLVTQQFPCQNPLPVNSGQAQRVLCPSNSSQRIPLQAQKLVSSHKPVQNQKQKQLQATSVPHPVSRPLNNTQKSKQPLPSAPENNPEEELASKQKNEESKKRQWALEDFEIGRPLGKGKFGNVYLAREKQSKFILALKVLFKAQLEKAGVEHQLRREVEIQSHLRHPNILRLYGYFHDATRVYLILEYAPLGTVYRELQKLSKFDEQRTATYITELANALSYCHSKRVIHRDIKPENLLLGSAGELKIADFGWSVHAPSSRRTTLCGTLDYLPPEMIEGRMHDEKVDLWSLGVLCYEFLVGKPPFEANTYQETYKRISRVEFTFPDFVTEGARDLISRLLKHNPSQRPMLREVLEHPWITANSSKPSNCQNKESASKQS
Dear colleague, please return just the value in nM, with no unit written.

compound	unitOfMeasure	number
CN1C(=O)[C@@H](N2CCc3cn(CC4CCS(=O)(=O)CC4)nc3C2=O)COc2ccccc21 [TP-030n]	nM	1000

Below: the item to evaluate.
Q. What value of IC50 has been recorded for this entry: CN1C(=O)[C@@H](N2CCc3cn(Cc4ccccc4)nc3C2=O)COc2ccccc21 [TP-030-1]
A. 1000

* * *

# pIC50 measurements, system: Serine/threonine-protein kinase PAK 4 (Homo sapiens)
# Sequence (O96013 whole entry): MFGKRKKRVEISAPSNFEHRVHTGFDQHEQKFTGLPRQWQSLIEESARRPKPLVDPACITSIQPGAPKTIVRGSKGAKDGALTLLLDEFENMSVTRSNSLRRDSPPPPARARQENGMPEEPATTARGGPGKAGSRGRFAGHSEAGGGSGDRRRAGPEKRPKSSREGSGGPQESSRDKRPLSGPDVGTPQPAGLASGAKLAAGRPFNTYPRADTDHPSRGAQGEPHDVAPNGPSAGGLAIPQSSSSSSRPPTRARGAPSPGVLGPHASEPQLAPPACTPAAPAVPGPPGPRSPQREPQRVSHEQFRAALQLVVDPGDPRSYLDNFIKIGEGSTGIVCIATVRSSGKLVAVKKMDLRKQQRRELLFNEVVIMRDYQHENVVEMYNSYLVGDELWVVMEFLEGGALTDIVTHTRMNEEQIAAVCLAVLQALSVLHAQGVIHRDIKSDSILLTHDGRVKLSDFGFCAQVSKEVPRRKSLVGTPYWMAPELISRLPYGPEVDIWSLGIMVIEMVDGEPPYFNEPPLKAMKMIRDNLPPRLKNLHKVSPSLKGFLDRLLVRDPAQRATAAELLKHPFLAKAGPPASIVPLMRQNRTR
Please report pIC50 as the negative decimal logarithm of the molar concentration, giving only the number.

compound	targetSystem	pIC50
CN1C(=O)[C@@H](N2CCc3cn(Cc4ccccc4)nc3C2=O)COc2ccccc21	Serine/threonine-protein kinase PAK 4 (Homo sapiens)	6.00

Below: the item to evaluate.
Q. I'm curious: which pIC50 was measured for CN1C(=O)[C@@H](N2CCc3cn(CC4CCS(=O)(=O)CC4)nc3C2=O)COc2ccccc21 [TP-030n] tested on Serine/threonine-protein kinase PAK 4 (Homo sapiens)?
A. 6.00

* * *

The following molecules are shown together with reported pIC50 values.
- targetSystem: Fibroblast growth factor receptor 4 (Homo sapiens)
- Sequence (P22455 whole entry): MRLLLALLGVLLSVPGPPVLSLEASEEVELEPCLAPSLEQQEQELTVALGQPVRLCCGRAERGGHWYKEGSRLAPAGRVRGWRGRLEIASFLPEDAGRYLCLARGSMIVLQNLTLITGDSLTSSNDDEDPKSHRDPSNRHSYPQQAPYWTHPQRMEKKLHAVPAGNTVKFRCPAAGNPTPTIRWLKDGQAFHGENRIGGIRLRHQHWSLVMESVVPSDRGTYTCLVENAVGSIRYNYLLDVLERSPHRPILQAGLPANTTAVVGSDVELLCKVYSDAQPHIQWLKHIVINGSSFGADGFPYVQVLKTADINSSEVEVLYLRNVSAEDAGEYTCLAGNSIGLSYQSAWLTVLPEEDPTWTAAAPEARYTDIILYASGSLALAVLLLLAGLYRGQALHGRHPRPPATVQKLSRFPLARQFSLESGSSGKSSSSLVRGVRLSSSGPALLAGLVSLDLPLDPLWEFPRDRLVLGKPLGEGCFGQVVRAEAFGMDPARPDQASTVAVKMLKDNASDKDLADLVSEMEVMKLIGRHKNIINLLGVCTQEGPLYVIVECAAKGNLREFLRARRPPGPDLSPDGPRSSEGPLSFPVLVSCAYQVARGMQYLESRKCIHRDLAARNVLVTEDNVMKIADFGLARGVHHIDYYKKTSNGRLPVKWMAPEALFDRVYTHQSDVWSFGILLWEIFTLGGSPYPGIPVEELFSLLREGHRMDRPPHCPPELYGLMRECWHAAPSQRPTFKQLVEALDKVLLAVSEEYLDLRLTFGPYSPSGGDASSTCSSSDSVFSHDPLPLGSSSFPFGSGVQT
Please report pIC50 as the negative decimal logarithm of the molar concentration, giving only the number.

molecule	number
CN1C(=O)[C@@H](N2CCc3cn(Cc4ccccc4)nc3C2=O)COc2ccccc21 [TP-030-1]	6.00

Below: the item to evaluate.
Q. What value of pIC50 has been recorded for this entry: CN1C(=O)[C@@H](N2CCc3cn(CC4CCS(=O)(=O)CC4)nc3C2=O)COc2ccccc21 [TP-030n]
A. 6.00

* * *

- targetSystem: Mitogen-activated protein kinase kinase kinase 13 (Homo sapiens)
- experimentalDetails: LZK(M313LGRJ) Takeda global kinase panel
measureName: pIC50
Please report pIC50 as the negative decimal logarithm of the molar concentration, giving only the number.

compound	pIC50
CN1C(=O)[C@@H](N2CCc3cn(CC4CCS(=O)(=O)CC4)nc3C2=O)COc2ccccc21 [TP-030n]	6.00

Q. What value of pIC50 has been recorded for this entry: CN1C(=O)[C@@H](N2CCc3cn(Cc4ccccc4)nc3C2=O)COc2ccccc21 [TP-030-1]
A. 6.00

* * *

- targetSystem: Serine/threonine-protein kinase Sgk3 (Homo sapiens, UniProt Q96BR1)
- Sequence (Q96BR1 whole entry): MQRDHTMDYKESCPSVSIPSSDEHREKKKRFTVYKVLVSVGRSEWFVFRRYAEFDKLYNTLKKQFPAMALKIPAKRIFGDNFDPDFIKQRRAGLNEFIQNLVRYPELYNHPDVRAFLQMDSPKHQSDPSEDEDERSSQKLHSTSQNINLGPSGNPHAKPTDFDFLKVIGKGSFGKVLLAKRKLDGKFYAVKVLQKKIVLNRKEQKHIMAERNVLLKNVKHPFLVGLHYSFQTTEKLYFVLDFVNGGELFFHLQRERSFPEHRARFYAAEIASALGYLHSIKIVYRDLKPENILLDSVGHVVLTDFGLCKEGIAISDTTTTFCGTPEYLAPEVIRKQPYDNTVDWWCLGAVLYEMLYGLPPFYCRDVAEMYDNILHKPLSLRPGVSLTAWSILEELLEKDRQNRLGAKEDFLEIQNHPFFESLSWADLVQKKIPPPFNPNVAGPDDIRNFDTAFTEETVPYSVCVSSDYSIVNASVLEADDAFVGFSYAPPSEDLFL
measureName: pIC50
Please report pIC50 as the negative decimal logarithm of the molar concentration, giving only the number.

compound	pIC50
CN1C(=O)[C@@H](N2CCc3cn(Cc4ccccc4)nc3C2=O)COc2ccccc21 [TP-030-1]	6.00

Q. What value of pIC50 has been recorded for this entry: CN1C(=O)[C@@H](N2CCc3cn(CC4CCS(=O)(=O)CC4)nc3C2=O)COc2ccccc21 [TP-030n]
A. 6.00

* * *

- targetSystem: Bromodomain-containing protein 2 (Homo sapiens)
- experimentalDetails: BRD2(BRD2LHRC) Takeda global kinase panel
measureName: pIC50
Please report pIC50 as the negative decimal logarithm of the molar concentration, giving only the number.

Q. What value of pIC50 has been recorded for this entry: CN1C(=O)[C@@H](N2CCc3cn(CC4CCS(=O)(=O)CC4)nc3C2=O)COc2ccccc21 [TP-030n]
A. 6.00

* * *

The following molecules are shown together with reported pIC50 values.
- targetSystem: UniProt Q9NSY1
- Sequence (Q9NSY1 whole entry): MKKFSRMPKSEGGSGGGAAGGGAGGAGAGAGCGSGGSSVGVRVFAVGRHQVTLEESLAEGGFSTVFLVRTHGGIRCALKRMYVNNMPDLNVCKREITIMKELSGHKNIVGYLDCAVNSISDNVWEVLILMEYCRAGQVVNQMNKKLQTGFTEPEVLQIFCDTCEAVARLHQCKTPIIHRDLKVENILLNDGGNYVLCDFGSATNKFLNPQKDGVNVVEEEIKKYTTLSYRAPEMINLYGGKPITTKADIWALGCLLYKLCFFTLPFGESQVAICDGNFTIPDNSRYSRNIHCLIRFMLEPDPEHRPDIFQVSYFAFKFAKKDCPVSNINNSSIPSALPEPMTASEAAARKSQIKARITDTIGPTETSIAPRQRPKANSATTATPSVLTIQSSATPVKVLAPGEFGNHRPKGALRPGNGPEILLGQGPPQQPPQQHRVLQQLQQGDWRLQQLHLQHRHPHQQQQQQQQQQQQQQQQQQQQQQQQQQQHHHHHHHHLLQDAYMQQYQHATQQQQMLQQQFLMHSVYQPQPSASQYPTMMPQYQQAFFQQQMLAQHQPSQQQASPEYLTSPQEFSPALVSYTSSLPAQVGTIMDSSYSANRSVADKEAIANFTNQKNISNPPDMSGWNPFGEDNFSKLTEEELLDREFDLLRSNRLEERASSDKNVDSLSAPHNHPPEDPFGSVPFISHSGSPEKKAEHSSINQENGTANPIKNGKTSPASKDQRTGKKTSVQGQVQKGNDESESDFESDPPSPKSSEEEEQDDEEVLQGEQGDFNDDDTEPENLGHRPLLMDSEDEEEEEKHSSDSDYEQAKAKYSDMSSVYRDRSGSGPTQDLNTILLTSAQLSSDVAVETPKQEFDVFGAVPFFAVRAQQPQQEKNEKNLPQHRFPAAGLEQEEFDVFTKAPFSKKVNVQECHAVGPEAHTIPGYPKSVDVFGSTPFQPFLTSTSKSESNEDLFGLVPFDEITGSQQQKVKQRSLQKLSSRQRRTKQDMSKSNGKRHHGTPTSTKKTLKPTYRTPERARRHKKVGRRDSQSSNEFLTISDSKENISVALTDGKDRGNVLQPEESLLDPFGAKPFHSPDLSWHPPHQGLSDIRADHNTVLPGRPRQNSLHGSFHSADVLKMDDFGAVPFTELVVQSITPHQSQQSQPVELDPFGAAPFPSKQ
Please report pIC50 as the negative decimal logarithm of the molar concentration, giving only the number.

molecule	pIC50
CN1C(=O)[C@@H](N2CCc3cn(CC4CCS(=O)(=O)CC4)nc3C2=O)COc2ccccc21 [TP-030n]	6.00

Below: the item to evaluate.
Q. I'm curious: which pIC50 was measured for CN1C(=O)[C@@H](N2CCc3cn(Cc4ccccc4)nc3C2=O)COc2ccccc21 [TP-030-1] tested on UniProt Q9NSY1?
A. 6.00

* * *

- targetSystem: Protein kinase C zeta type (Homo sapiens)
- Sequence (Q05513 whole entry): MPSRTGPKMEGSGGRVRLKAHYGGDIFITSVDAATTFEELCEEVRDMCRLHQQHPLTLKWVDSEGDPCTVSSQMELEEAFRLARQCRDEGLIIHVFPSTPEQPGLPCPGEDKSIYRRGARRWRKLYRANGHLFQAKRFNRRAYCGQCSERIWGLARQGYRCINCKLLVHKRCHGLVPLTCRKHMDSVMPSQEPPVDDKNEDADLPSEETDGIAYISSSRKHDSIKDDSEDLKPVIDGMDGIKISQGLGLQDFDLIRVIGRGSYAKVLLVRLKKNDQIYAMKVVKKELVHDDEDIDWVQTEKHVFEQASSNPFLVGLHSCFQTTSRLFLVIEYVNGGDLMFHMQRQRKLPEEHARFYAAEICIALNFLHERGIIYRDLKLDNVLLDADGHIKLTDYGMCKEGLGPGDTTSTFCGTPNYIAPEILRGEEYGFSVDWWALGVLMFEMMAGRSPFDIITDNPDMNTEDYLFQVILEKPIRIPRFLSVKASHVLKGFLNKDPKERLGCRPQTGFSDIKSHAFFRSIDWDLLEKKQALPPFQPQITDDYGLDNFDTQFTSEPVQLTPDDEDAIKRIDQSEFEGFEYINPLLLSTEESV
The following molecules are shown together with reported IC50 values.
Write the numeric value and append its unit.

molecule	targetSystem	IC50
CN1C(=O)[C@@H](N2CCc3cn(Cc4ccccc4)nc3C2=O)COc2ccccc21	Protein kinase C zeta type (Homo sapiens)	1000 nM

Below: the item to evaluate.
Q. I'm curious: which IC50 was measured for CN1C(=O)[C@@H](N2CCc3cn(CC4CCS(=O)(=O)CC4)nc3C2=O)COc2ccccc21 [TP-030n] tested on Protein kinase C zeta type (Homo sapiens)?
A. 1000 nM

* * *

The following compounds are shown together with reported IC50 values.
- targetSystem: UniProt P09619
- Sequence (P09619 whole entry): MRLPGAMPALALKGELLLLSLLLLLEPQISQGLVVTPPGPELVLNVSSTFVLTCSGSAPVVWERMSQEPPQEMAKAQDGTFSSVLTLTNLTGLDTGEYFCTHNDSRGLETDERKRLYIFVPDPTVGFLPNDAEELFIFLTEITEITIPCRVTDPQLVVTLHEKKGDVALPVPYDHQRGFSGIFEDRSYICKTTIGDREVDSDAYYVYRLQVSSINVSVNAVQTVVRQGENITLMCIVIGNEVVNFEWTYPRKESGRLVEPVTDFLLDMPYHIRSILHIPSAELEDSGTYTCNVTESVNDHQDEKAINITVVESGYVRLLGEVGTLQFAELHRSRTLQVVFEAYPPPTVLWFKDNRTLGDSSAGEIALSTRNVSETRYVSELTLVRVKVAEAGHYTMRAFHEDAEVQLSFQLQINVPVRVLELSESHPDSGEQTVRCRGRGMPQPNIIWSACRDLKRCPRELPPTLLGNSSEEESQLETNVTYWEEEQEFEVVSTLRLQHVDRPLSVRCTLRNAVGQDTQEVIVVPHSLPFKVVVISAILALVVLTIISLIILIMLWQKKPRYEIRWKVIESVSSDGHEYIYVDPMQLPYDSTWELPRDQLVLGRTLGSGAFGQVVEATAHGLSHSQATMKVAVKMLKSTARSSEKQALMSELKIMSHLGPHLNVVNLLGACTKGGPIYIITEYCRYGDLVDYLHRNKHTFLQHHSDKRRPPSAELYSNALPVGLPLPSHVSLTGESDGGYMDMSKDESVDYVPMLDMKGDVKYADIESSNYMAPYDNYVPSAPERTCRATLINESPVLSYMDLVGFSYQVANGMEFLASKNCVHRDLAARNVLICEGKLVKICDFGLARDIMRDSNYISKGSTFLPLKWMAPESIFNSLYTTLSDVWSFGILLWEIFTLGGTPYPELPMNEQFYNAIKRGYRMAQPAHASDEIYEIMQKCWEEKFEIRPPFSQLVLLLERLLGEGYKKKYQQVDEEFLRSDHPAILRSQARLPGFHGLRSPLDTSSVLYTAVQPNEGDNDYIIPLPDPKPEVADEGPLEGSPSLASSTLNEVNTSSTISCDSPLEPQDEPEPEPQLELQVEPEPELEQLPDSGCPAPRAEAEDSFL
Dear colleague, please return just the value in µM, with no unit written.

compound	measureName	number
CN1C(=O)[C@@H](N2CCc3cn(CC4CCS(=O)(=O)CC4)nc3C2=O)COc2ccccc21 [TP-030n]	IC50	1

Q. I'm curious: which IC50 was measured for CN1C(=O)[C@@H](N2CCc3cn(Cc4ccccc4)nc3C2=O)COc2ccccc21 [TP-030-1] tested on UniProt P09619?
A. 1
